molecular target: SV40 large T antigen (Tag) (Simian virus 40, UniProt P03070 1-708); experiment: EMSA
Sequence (P03070 whole entry): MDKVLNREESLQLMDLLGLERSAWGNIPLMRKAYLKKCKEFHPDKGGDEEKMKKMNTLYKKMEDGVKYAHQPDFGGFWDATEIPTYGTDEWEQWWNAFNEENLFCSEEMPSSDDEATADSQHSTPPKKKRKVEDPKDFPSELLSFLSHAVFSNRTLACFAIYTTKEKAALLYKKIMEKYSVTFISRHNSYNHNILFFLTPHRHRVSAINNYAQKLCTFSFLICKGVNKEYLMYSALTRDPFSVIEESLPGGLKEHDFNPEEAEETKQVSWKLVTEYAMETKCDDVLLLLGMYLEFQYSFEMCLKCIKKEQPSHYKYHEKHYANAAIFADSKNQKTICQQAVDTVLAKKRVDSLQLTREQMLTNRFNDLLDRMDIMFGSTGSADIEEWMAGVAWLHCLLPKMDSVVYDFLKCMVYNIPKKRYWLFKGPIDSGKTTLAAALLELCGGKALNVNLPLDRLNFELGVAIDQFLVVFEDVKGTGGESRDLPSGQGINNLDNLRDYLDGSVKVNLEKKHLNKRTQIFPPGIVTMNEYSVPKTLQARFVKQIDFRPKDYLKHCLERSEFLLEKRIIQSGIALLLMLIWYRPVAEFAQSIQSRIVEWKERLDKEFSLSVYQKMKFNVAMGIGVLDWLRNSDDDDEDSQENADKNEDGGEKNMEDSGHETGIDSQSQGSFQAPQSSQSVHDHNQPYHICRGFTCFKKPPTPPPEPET
measurementLabel: Kd (nM)

binder: ssDNA(Site2) (ssDNA) DNA: GCTCAGAGGCCGAGGCGGCCTCGGCCTCTGCATAAATAAAAAAAATTAGTCAGCCAT
measurementLabel: Kd
endpointValue: 40
